All figures here come from ChEMBL document CHEMBL1201862.

# System: HT-29
# assay-protocol: NCI tumour cell line growth inhibition, 48 h
The source made the active and inactive calls. Rule as the data show it: active = GI50 up to about 1.1 µM and inactive = higher.
measure: GI50

Here are 3 molecules together with their reported answers.
O=C(CCCC(=O)Nc1ccc(Cl)cc1Cl)CC(=O)c1ccc2ccccc2c1
> 100 µM (inactive)
CCOC(=O)c1cc2c3c(c(O)c(OC)c2s1)N(C(=O)c1cc2c4c(c(O)c(OC)c2s1)N(C(C)=O)CC4)CC3
> 100 µM (inactive)
Cc1nc2c(=O)[nH]c3ccc(Cl)cc3c2o1
> 100 µM (inactive)

IN: Which measured GI50 belongs to O=S(=O)(O)c1ccc2c(/N=N/c3ccc(S(=O)(=O)O)c4ccccc34)c(O)c(S(=O)(=O)O)cc2c1 , tested on HT-29?
OUT: > 100 µM (inactive)

IN: Field: GI50 (HT-29). Entry: C=C(Cl)/C(=C\Cl)CCC(Br)C(C)C (stereo unspecified)
OUT: > 100 µM (inactive)

IN: Lab note: need GI50 for O=c1c2cc(-c3ccccc3)sc2nc2n1N=C(c1ccc(Cl)cc1)CS2 on HT-29, anyone have it?
OUT: > 100 µM (inactive)

IN: Which GI50 is reported with HT-29 for this entry: CC12N=NNC1C(=O)NC2=O (stereo unspecified) ?
OUT: > 100 µM (inactive)

IN: Request body: readout GI50, system HT-29, query CN(/N=C\c1ccnc2ccccc12)c1ccc([N+](=O)[O-])cc1 . Return the value.
OUT: > 100 µM (inactive)

IN: Checklist item: GI50 tested on HT-29, entry O=S(=O)(Nc1ccccc1S(=O)(=O)c1ccccc1)c1ccccc1 , value?
OUT: 48 µM (inactive)

IN: For the record OC(c1ccccc1)(c1ccccc1)c1ccccn1 , what value of GI50 is listed for HT-29?
OUT: > 100 µM (inactive)

IN: # query: GI50 | item CCN(CC)c1ccc(Cl)c2c1C(O)(C(C)C)C2(C)C (stereo unspecified) | system: HT-29
OUT: 11.8 µM (inactive)

----------
Please consider the recorded GI50 for HCT-15 in what follows.
# unit: µM | format: bare number

CCOC(=O)c1c(C)n(-c2ccc(C)cc2)c2c1cc(O)c1[nH]c3c(c12)CCCC3
24.3
O=c1oc2ccccc2c(O)c1C1c2c(c3ccccc3oc2=O)Oc2c1c(=O)oc1ccccc21
27.9
CCCCCC/C=C1\CCC(CN2CCOCC2)C1=O (stereo not given)
8.67

// next item, GI50 requested
IN: // fetch HCT-15 GI50 for CCOC(=O)c1c(CN2CCOCC2)n(Cc2ccccc2)c2c1cc(O)c1nc(C)c(C)nc12
OUT: 57

----------
# Tested on: NCI-H460
# assay-protocol: NCI tumour cell line growth inhibition, 48 h
Calls of active or inactive are those of the source. Rule as the data show it: active = GI50 up to about 1.1 µM and inactive = higher.
GI50 values for the molecules below.

IN: Need GI50 of Nc1ccccc1/C(O)=C1/CCOC1=O , thanks.
OUT: > 100 µM (inactive)

IN: May I ask what GI50 has been recorded for CCCSc1ccc2[nH]c(N3C(=O)/C(=C/c4ccco4)N=C3c3ccccc3)cc2c1 ?
OUT: 18.3 µM (inactive)

IN: Give the measured GI50 of CCCCCCC(=O)C/C(=N/NC(N)=S)C(=O)NC1C2CC3CC(C2)CC1C3 (stereo unspecified) .
OUT: > 100 µM (inactive)
